- Test system: HBV DNA replication
- testSummary: In vitro anti-HBV: inhibition of HBV DNA replication in 2.2.15 cells (dot blot)
- Type: cell-based, hepatitis B virus
- experimentalContext: Hepatitis B virus, 192 h, day 8, dot blot
Where a SMILES comes first, the peptide text is derived from it. [ ]: non-standard residue; d: D form. The star is where a group is joined. Phe(4-NO2) = N[C@@H](Cc1ccc([N+](=O)[O-])cc1)C(=O)O; 4Abz = Nc1ccc(C(=O)O)cc1; Propionyl = CCC(=O)*; Bz = O=C(c1ccccc1)*
Catalogue of IC50 readings, one per entry.

compound	IC50 (µg/mL)
COC(=O)[C@H](Cc1ccccc1)NC(=O)[C@H](Cc1ccc(O)cc1)NC(=O)c1ccccc1Cl [Example 23]	52
O=C(N[C@@H](Cc1ccccc1)C(=O)N[C@H](CO)Cc1ccccc1)c1ccc(CN2CCCC2)cc1 [Example 50]	7.04
COC(=O)[C@H](Cc1ccc(O)cc1)NC(=O)[C@H](Cc1ccc([N+](=O)[O-])cc1)NC(=O)c1ccccc1 [Example 14] (Bz-[Phe(4-NO2)]-Tyr-OMe)	1.16
COC(=O)[C@H](Cc1ccccc1)NC(=O)[C@H](Cc1ccc(OC(C)=O)c(NC(C)=O)c1)NC(=O)c1ccccc1 [Example 63]	53.1
CCC(=O)Nc1ccc(C(=O)N[C@@H](Cc2ccccc2)C(=O)N[C@@H](Cc2ccc([N+](=O)[O-])cc2)C(=O)OC)cc1 [Example 38] ({Propionyl-4Abz}-Phe-[Phe(4-NO2)]-OMe)	2.39
O=C(N[C@@H](Cc1ccc(O)cc1)C(=O)N[C@H](CO)Cc1ccccc1)c1ccc(F)cc1 [Example 24]	96

----------
// reported melting point for each item listed
Where a SMILES comes first, the peptide text is derived from it. [ ]: non-standard residue; d: D form. The star is where a group is joined. Phe(4-NO2) = N[C@@H](Cc1ccc([N+](=O)[O-])cc1)C(=O)O; 4Abz = Nc1ccc(C(=O)O)cc1; Propionyl = CCC(=O)*; Bz = O=C(c1ccccc1)*

compound	melting point
COC(=O)[C@H](Cc1ccc(O)cc1)NC(=O)[C@H](Cc1ccccc1)NC(=O)c1ccccc1 [Example 04] (Bz-Phe-Tyr-OMe)	184 to 186 °C
Cc1ccc(C(=O)N[C@@H](Cc2ccc(O)cc2)C(=O)N[C@H](CO)Cc2ccccc2)cc1	193 to 195 °C
COC(=O)[C@H](Cc1ccccc1)NC(=O)[C@H](Cc1ccccc1)N(C(C)=O)C(=O)c1ccccc1	221 to 222 °C
COC(=O)[C@H](Cc1ccc(OC(C)=O)cc1)NC(=O)[C@H](Cc1ccc(NC(C)=O)cc1)NC(=O)c1ccc(C)cc1	222 to 223 °C
CCOC(=O)c1ccc(C(=O)N[C@@H](Cc2ccccc2)C(=O)N[C@H](CO)Cc2ccccc2)cc1	188 to 189.5 °C
O=C(N[C@@H](Cc1ccc(O)cc1)C(=O)N[C@H](CO)Cc1ccccc1)c1ccccc1Cl	168 to 169 °C
COC(=O)[C@H](Cc1ccccc1)NC(=O)[C@H](Cc1ccc(O)cc1)NC(=O)c1ccccc1 (Bz-Tyr-Phe-OMe)	200 to 202 °C
CCC(=O)Nc1ccc(C(=O)N[C@@H](Cc2ccccc2)C(=O)N[C@@H](Cc2ccc([N+](=O)[O-])cc2)C(=O)OC)cc1 [Example 38] ({Propionyl-4Abz}-Phe-[Phe(4-NO2)]-OMe)	221 to 223 °C
COC(=O)[C@H](Cc1ccccc1)NC(=O)[C@H](Cc1ccc(O)cc1)NC(=O)c1ccccc1Cl	175.5 to 177.5 °C
O=C(N[C@@H](Cc1ccc(O)cc1)C(=O)N[C@H](CO)Cc1ccccc1)c1cccc([N+](=O)[O-])c1	225.5 to 227 °C
CC(=O)c1ccc(C[C@@H](CO)NC(=O)[C@H](Cc2ccccc2)NC(=O)c2ccccc2)cc1	235.5 to 238 °C
O=C(N[C@@H](Cc1ccccc1)C(=O)N[C@H](CO)Cc1ccccc1)c1ccc(Cl)cc1	211.5 to 214 °C
COC(=O)[C@H](Cc1ccccc1)NC(=O)[C@H](Cc1ccccc1)NC(=O)c1ccccc1Cl	152.5 to 153.5 °C
COC(=O)[C@H](Cc1ccccc1)NC(=O)[C@H](Cc1ccc(O)cc1)NC(=O)c1ccc([N+](=O)[O-])cc1	212 to 214 °C
COC(=O)[C@H](Cc1ccc(O)cc1)NC(=O)[C@H](Cc1ccccc1)NCc1ccncc1	216 to 217 °C
COC(=O)[C@H](Cc1ccccc1)NC(=O)[C@H](Cc1ccc(O)cc1)NC(=O)c1ccc(F)cc1	186.5 to 189 °C
COC(=O)[C@H](Cc1ccccc1)NC(=O)[C@H](Cc1ccc(O)cc1)NC(=O)c1ccc(Cl)cc1	203.5 to 205 °C
O=C(N[C@@H](Cc1ccc(O)cc1)C(=O)N[C@H](CO)Cc1ccccc1)c1ccc(F)cc1	194.5 to 195.5 °C

----------
- Test system: HBV DNA replication
- testSummary: In vitro anti-HBV: inhibition of HBV DNA replication in 2.2.15 cells (dot blot)
- Format: cell-based, hepatitis B virus
- experimentalContext: Hepatitis B virus, 192 h, day 8, dot blot
Where a SMILES comes first, the peptide text is derived from it. [ ]: non-standard residue; d: D form. The star is where a group is joined. Phe(4-NH2) = Nc1ccc(C[C@H](N)C(=O)O)cc1; Bz = O=C(c1ccccc1)*
# 1.0 = IC50 below 7 µg/mL (exclusive); 0.0 = IC50 at/above 7 µg/mL

compound	labelValue
CC(=O)Nc1ccc(C[C@H](NC(=O)c2ccccc2)C(=O)N[C@@H](Cc2ccccc2)C(=O)O)cc1 [Example 87] (Bz-[Phe(4-NH2)](Ac)-Phe-OH)	1.0
CN(C)Cc1ccc(C(=O)N[C@@H](Cc2ccccc2)C(=O)N[C@H](CO)Cc2ccccc2)cc1	0.0
CN(C)c1ccc(C[C@H](NC(=O)c2ccccc2)C(=O)N[C@H](CO)Cc2ccccc2)cc1	1.0
Nc1ccn([C@@H]2CS[C@H](CO)O2)c(=O)n1 [Example 3TC, Lamivudine, reference compound]	0.0

----------
Catalogue of IC50 values
- Tested on: HBV DNA replication
- testSummary: In vitro anti-HBV: inhibition of HBV DNA replication in 2.2.15 cells (dot blot)
- Format: cell-based, hepatitis B virus
- experimentalContext: Hepatitis B virus, 192 h, day 8, dot blot
- Method: Cell control wells were simultaneously set up. […] IC50 and SI were calculated, respectively.
Where a SMILES comes first, the peptide text is derived from it. [ ]: non-standard residue; d: D form. The star is where a group is joined. Phe(4-NO2) = N[C@@H](Cc1ccc([N+](=O)[O-])cc1)C(=O)O; Bz = O=C(c1ccccc1)*

molecule	IC50, µg/mL
COC(=O)[C@H](Cc1ccccc1)NC(=O)[C@H](Cc1ccc(O)cc1)NC(=O)c1ccc(F)cc1	68.7
COC(=O)[C@H](Cc1ccc(OC)cc1)NC(=O)[C@H](Cc1ccccc1)NC(=O)c1ccccc1 [Example 71] (Bz-Phe-Tyr(Me)-OMe)	6.62
CCCCOc1ccc(C[C@H](NC(=O)[C@H](Cc2ccccc2)NC(=O)c2ccccc2)C(=O)OC)cc1	87.5
O=C(N[C@@H](Cc1ccc([N+](=O)[O-])cc1)C(=O)N[C@@H](Cc1ccccc1)C(=O)O)c1ccccc1 [Example 88] (Bz-[Phe(4-NO2)]-Phe-OH)	25
COC(=O)[C@H](Cc1ccccc1)NC(=O)[C@H](Cc1ccccc1)N(C(C)=O)C(=O)c1ccccc1	59.5
O=C(N[C@@H](Cc1ccc(O)cc1)C(=O)N[C@H](CO)Cc1ccccc1)c1ccccc1Cl	106
COC(=O)[C@H](Cc1ccccc1)NC(=O)[C@H](Cc1ccccc1)NC(=O)c1ccc(F)cc1	0.63
O=C(N[C@@H](Cc1ccc(OCO)cc1)C(=O)N[C@H](CO)Cc1ccccc1)c1ccccc1.[Na]	27.3

----------
- Tested on: 2.2.15 cells
- testSummary: Cytotoxicity (TC50, median toxic concentration) in 2.2.15 cells
- Assay type: cell-based
Where a SMILES comes first, the peptide text is derived from it. [ ]: non-standard residue; d: D form. The star is where a group is joined. Phe(4-NO2) = N[C@@H](Cc1ccc([N+](=O)[O-])cc1)C(=O)O; Phe(4-NH2) = Nc1ccc(C[C@H](N)C(=O)O)cc1; Propionyl = CCC(=O)*; Bz = O=C(c1ccccc1)*

compound	unit	TC50
CCC(=O)Nc1ccc(C[C@H](NC(=O)[C@H](Cc2ccccc2)NC(=O)c2ccccc2)C(=O)O)cc1 [Example 94] (Bz-Phe-[Phe(4-NH2)](Propionyl)-OH)	µg/mL	561.21
COC(=O)[C@H](Cc1ccccc1)NC(=O)[C@H](Cc1ccc(O)cc1)NC(=O)c1ccc(Cl)cc1 [Example 20]	µg/mL	198.46
COC(=O)[C@H](Cc1ccccc1)NC(=O)[C@H](Cc1ccc([N+](=O)[O-])cc1)NC(=O)c1ccccc1 [Example 12] (Bz-[Phe(4-NO2)]-Phe-OMe)	µg/mL	388.03
COC(=O)[C@H](Cc1ccc(O)cc1)NC(=O)[C@H](Cc1ccccc1)NC(=O)c1ccccc1Cl [Example 11]	µg/mL	500.00

Values were extracted from patent US9023809B2.
